# Test system: CAKI-1 renal
# protocol_description: NCI tumour cell line growth inhibition, 48 h
measurement_kind: GI50

Would you mind telling me what GI50 value was observed for CC(=O)c1c(C(F)(F)F)n([O-])c2ccccc2[n+]1=O ?
1210 nM

Which value of GI50 has been reported for O=C(NCC1CC1)c1ccc(-c2cccc(C(=O)NC3CC3)c2)cc1 in the records?
> 25000 nM

What GI50 value was documented for this compound, CC1=C([Se]CC(OC(=O)CC[Se]c2ccccc2)C(=O)NC(C)(C)C)C(=O)c2ccccc2C1=O (stereo unspecified) ?
2370 nM

Query (compound): COc1ccc2c(c1)C(=O)/C(=C/c1cccc(OCC(=O)c3ccccc3)c1)CC2 ; field requested: GI50
13000 nM

Any idea what GI50 was measured for CCOc1ccccc1CCN=C1NC(=O)/C(=C/c2ccc3ncccc3c2)S1 ?
750 nM

# get_value(readout='GI50', item= COc1ccc(-c2noc(C(=O)O)c2-c2cc(OC)c(OC)c(OC)c2)cc1 )
2350 nM

# get_value(readout='GI50', item= N#C[Se]Cc1cc(-c2ccccc2)n(-c2ccc(S(N)(=O)=O)cc2)n1 )
2070 nM

Fill in: GI50 of Cc1c2cnccc2c(C)c2c1c1cc(C#N)ccc1n2C is ___
92.9 nM

Request the reported GI50 associated with CCc1c2c(nc3ccc(OCc4ccc(B(O)O)cc4)cc13)-c1cc3c(c(=O)n1C2)COC(=O)[C@]3(O)CC
< 14.3 nM

Given the entry N#CC(C#N)=C/C=C(\Cl)c1ccc(Cl)cc1 , report its measured GI50.
3780 nM

Dear colleague, I am looking for the recorded GI50 of the following compound: C=C1CCC2C3(C)COC(C)(C)OC3CCC2(C)C1C/C=C1/C(=O)OCC1OC(C)=O (stereo unspecified)
4920 nM

----------
# System: RPMI-8226 leukemia
# protocol_description: NCI tumour cell line growth inhibition, 48 h
Kindly state TGI for each of the entries shown.

Query: TGI; subject: O=C(O)CCNS(=O)(=O)c1ccc(NC(=O)c2ccccc2)cc1
> 100 µM

Quick one: TGI of O=C1OCC2=C1C(c1cccc(F)c1)c1cc3c(cc1N2CCO)OCO3 (stereo not given) ?
> 50 µM

Looking for the measured TGI of O=C(O)CN(CC(=O)O)C1CCCCC1N1CC(=O)OC(=O)C1 (stereo not given) , can you help?
> 100 µM

So what's the measured TGI for this one? CCOC(=O)c1ccc(-n2[nH]nc(C(N)=O)c2=O)cc1
> 100 µM

Give its TGI value. Item: CC(=O)NC1C(OCc2ccccc2)OC(CO)C(O)C1OCC(=O)N1CCCC1C(=O)N[C@@H](CCC(=O)NCCCCNc1c2ccccc2nc2cccc([N+](=O)[O-])c12)C(N)=O (stereo not given in full)
> 100 µM

// TGI lookup, key: O=C1/C(=C/c2ccc([N+](=O)[O-])cc2)CN(C(=O)CCN2CCC(=NO)CC2)C/C1=C\c1ccc([N+](=O)[O-])cc1
1.6 µM

Bench note: what TGI did O=[N+]([O-])c1ccccc1OCCOc1ccccc1[N+](=O)[O-] show?
> 100 µM

Data request, read-out TGI, for Nc1n(CC(=O)c2ccccc2)nc2sc(-c3ccccc3)n[n+]12
58.8 µM

Using the record for Cn1c(=O)c(N=Nc2c(=O)n(C)c(=O)n3c2[nH]c2ccccc23)c2[nH]c3ccccc3n2c1=O , report its TGI.
> 100 µM

Form field: reported TGI of CCN1C(=O)N(CC)C2C1NN=c1s/c(=C\c3ccc(Cl)cc3Cl)c(=O)n12 (stereo not given)
7.25 µM

Origin of the recorded values: PubChem BioAssay (NCI)
